Values compiled from patent US20250352508A1.

- protocol description: Pharmacokinetics of tonabersat after single and multiple dosing, 240 to 400 mg, fasted and fed (MAD and DDI parts)
- Type: in vivo, human
- run parameters: human, in vivo, oral; single dose 320 mg, fasted; read-out: median tmax
readout name: Tmax (h)

molecule="CC(=O)c1ccc2c(c1)[C@H](NC(=O)c1ccc(F)c(Cl)c1)[C@H](O)C(C)(C)O2 [tonabersat]" assay_value=10.5

###

- protocol description: Pharmacokinetics of tonabersat after single and repeat oral dosing, 40 and 80 mg once daily
- Type: in vivo, human
- run parameters: human, plasma, oral; read-out: elimination half-life
readout name: half-life

smiles_record=CC(=O)c1ccc2c(c1)[C@H](NC(=O)c1ccc(F)c(Cl)c1)[C@H](O)C(C)(C)O2 readout_name=half-life assay_value="24 to 36 h"

###

- protocol description: Pharmacokinetics of tonabersat after single and multiple dosing, 240 to 400 mg, fasted and fed (MAD and DDI parts)
- Format: in vivo, human
- run parameters: human, in vivo, oral, 320 mg, single dose 320 mg fed
readout name: AUC(0-inf) (µg·h/mL)

smiles_record=CC(=O)c1ccc2c(c1)[C@H](NC(=O)c1ccc(F)c(Cl)c1)[C@H](O)C(C)(C)O2 assay_value=296

###

- protocol description: Pharmacokinetics of tonabersat after single and repeat oral dosing, 40 and 80 mg once daily
- Type: in vivo, human
- run parameters: human, plasma, oral; read-out: mean half-life (converted)
readout name: half-life

smiles_record=CC(=O)c1ccc2c(c1)[C@H](NC(=O)c1ccc(F)c(Cl)c1)[C@H](O)C(C)(C)O2 assay_value="~1500 min"
